Tested on: Human peripheral blood mononuclear cells (PBMC)
Experiment: Cytokine induction in human cells (PBMC), cytokines by ELISA / multiplex bead assay
Type: cell-based
Conditions: human PBMC, 21-24 hours; lowest concentration giving cytokine level at least 2x negative control; multiplex bead assay; read-out: MEC to Induce Cytokine: IFN-gamma
Measurement Name: minimal effective concentration (µM)
Answer format: numeric, µM implied, no suffix.

Using the record for CC(C)C[C@@H](n1cnc2c(N)nc3ccccc3c21)C(C)(C)O [Example 17] , report its minimal effective concentration.
10

Using the record for CC(C)Cn1cnc2c(N)nc3ccccc3c21 [Comparative Example 1, 1-isobutylimidazo[4,5-c]quinolin-4-amine, reference compound] , report its minimal effective concentration.
11.1

Using the record for CC(C)[C@@H](C)n1cnc2c(N)nc3ccccc3c21 [Example 1] , report its minimal effective concentration.
3.7

Okay, now this molecule:
Using the record for C[C@@H](n1cnc2c(N)nc3ccccc3c21)C(C)(C)C [Example 3] , report its minimal effective concentration.
1.2

====

System: Human peripheral blood mononuclear cells (PBMC)
Assay: Cytokine induction in human cells (PBMC), cytokines by ELISA / multiplex bead assay
Format: cell-based
Conditions: human PBMC, 21-24 hours; lowest concentration giving cytokine level at least 2x negative control; multiplex bead assay; read-out: MEC to Induce Cytokine: IFN-gamma
Attribute: minimal effective concentration

Using the record for `CCCC[C@@H](n1cnc2c(N)nc3ccccc3c21)C(C)(C)O` , report its minimal effective concentration.
0.12 µM

Using the record for `CC(C)[C@H](C)n1cnc2c(N)nc3ccccc3c21` , report its minimal effective concentration.
> 100 µM

Next:
Using the record for `C[C@H](C1CCCCC1)n1cnc2c(N)nc3ccccc3c21` , report its minimal effective concentration.
1.2 µM

Using the record for `CCCC[C@@H](n1cnc2c(N)nc3ccccc3c21)C(C)(C)C` , report its minimal effective concentration.
> 30 µM

Using the record for `CC[C@@H](n1cnc2c(N)nc3ccccc3c21)C(C)(C)O` , report its minimal effective concentration.
3.3 µM

====

Molecular target: human TLR8 (Homo sapiens, UniProt Q9NR97)
Construct: host or cells: HEK293 (HEK-BLUE-hTLR8)
Sequence (Q9NR97 27-1041): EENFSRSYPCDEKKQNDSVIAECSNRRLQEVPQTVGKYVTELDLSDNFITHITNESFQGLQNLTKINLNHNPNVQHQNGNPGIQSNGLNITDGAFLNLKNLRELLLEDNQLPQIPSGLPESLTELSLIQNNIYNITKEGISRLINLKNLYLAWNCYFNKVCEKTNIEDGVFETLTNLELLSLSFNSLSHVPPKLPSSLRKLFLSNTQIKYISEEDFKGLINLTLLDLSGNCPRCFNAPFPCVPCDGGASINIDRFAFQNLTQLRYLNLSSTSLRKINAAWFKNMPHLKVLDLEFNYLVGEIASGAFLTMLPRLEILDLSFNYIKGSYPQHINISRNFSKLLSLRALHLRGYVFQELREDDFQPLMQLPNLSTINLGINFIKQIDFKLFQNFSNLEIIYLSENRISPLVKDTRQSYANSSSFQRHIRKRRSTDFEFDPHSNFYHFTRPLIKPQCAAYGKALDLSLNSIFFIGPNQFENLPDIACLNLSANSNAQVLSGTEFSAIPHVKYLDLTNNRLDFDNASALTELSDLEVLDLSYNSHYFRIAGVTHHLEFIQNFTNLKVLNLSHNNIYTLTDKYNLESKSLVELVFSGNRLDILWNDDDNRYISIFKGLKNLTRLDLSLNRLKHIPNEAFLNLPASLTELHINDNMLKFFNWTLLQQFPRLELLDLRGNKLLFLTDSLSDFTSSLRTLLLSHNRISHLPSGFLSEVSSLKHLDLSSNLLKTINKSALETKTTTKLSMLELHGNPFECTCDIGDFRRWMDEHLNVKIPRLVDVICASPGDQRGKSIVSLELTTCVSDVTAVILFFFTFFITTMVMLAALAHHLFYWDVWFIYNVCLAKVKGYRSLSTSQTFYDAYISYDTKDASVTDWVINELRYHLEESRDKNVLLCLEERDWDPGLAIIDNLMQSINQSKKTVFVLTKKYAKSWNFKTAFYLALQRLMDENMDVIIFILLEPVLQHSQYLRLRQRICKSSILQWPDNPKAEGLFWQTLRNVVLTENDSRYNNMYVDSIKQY
Test: TLR activation, HEK-BLUE-hTLR8 SEAP reporter cells
Type: cell-based
Conditions: 16-20 hours, lowest concentration giving SEAP response at least 2x vehicle control, tested 0.01-30 micromolar
Attribute: MEC to Produce TLR Activation: TLR 8

Using the record for `CCCC[C@@H](n1cnc2c(N)nc3ccccc3c21)C(C)(C)C` , report its MEC to Produce TLR Activation: TLR 8.
>30 µM

Using the record for `CC(C)C[C@H](n1cnc2c(N)nc3ccccc3c21)C(C)(C)O` , report its MEC to Produce TLR Activation: TLR 8.
>30 µM

Using the record for `C[C@@H](C1CCCCC1)n1cnc2c(N)nc3ccccc3c21` , report its MEC to Produce TLR Activation: TLR 8.
>30 µM

Using the record for `CCCC[C@H](C(C)C)n1cnc2c(N)nc3ccccc3c21` , report its MEC to Produce TLR Activation: TLR 8.
>30 µM

Using the record for `C[C@H](n1cnc2c(N)nc3ccccc3c21)C(C)(C)O` , report its MEC to Produce TLR Activation: TLR 8.
>30 µM

Using the record for CC(C)(O)Cn1cnc2c(N)nc3ccccc3c21 [Comparative Example 2, reference compound] , report its MEC to Produce TLR Activation: TLR 8.
>30 µM

Using the record for `CCCC[C@@H](n1cnc2c(N)nc3ccccc3c21)C(C)(C)O` , report its MEC to Produce TLR Activation: TLR 8.
10 µM

Using the record for `CCC[C@H](n1cnc2c(N)nc3ccccc3c21)C(C)(C)O` , report its MEC to Produce TLR Activation: TLR 8.
>30 µM

Using the record for `CC[C@H](n1cnc2c(N)nc3ccccc3c21)C(C)(C)O` , report its MEC to Produce TLR Activation: TLR 8.
>30 µM

Using the record for `CCC[C@@H](n1cnc2c(N)nc3ccccc3c21)C(C)(C)O` , report its MEC to Produce TLR Activation: TLR 8.
10 µM

Next:
Using the record for `C[C@@H](n1cnc2c(N)nc3ccccc3c21)C(C)(C)O` , report its MEC to Produce TLR Activation: TLR 8.
>30 µM

Using the record for `C[C@H](n1cnc2c(N)nc3ccccc3c21)C(C)(C)C` , report its MEC to Produce TLR Activation: TLR 8.
>30 µM

Using the record for CC(C)Cn1cnc2c(N)nc3ccccc3c21 [Comparative Example 1, 1-isobutylimidazo[4,5-c]quinolin-4-amine, reference compound] , report its MEC to Produce TLR Activation: TLR 8.
>30 µM

Using the record for `C[C@H](n1cnc2c(N)nc3ccccc3c21)C(C)(C)F` , report its MEC to Produce TLR Activation: TLR 8.
>30 µM

Using the record for `CC(C)C[C@@H](n1cnc2c(N)nc3ccccc3c21)C(C)(C)O` , report its MEC to Produce TLR Activation: TLR 8.
>30 µM

====

Test system: Human peripheral blood mononuclear cells (PBMC)
Assay: Cytokine induction in human cells (PBMC), cytokines by ELISA / multiplex bead assay
Assay type: cell-based
Conditions: human PBMC, 21-24 hours; lowest concentration giving cytokine level at least 2x negative control; multiplex bead assay; read-out: MEC to Induce Cytokine: IFN-gamma
Procedure: Whole blood was obtained from healthy human donors and collected by venipuncture into vacutainer tubes or syringes containing EDTA. Human peripheral blood mononuclear cells (PBMC) were purified from the whole blood by density gradient centrifugation. […] The number of viable cells was determined by counting with a Miltenyi FACS instrument (Miltenyi Biotec Inc., San Diego, Calif.) or by using a hemacytometer. […]
Attribute: minimal effective concentration
Answer format: numeric, µM implied, no suffix.

The examples below pair each entry with its known result.
Using the record for `C[C@@H](n1cnc2c(N)nc3ccccc3c21)C(C)(C)F` , report its minimal effective concentration.
30

Using the record for `C[C@@H](n1cnc2c(N)nc3ccccc3c21)C(C)(C)O` , report its minimal effective concentration.
3.3

Using the record for CC(C)(O)Cn1cnc2c(N)nc3ccccc3c21 [Comparative Example 2, reference compound] , report its minimal effective concentration.
10

Okay, now this molecule:
Using the record for `CCC(O)(CC)[C@@H](C)n1cnc2c(N)nc3ccccc3c21` , report its minimal effective concentration.
3.3

====

Molecular target: human TLR7 (Homo sapiens)
Construct: host or cells: HEK293 (HEK-BLUE-hTLR7)
Sequence (Q9NYK1 27-1049): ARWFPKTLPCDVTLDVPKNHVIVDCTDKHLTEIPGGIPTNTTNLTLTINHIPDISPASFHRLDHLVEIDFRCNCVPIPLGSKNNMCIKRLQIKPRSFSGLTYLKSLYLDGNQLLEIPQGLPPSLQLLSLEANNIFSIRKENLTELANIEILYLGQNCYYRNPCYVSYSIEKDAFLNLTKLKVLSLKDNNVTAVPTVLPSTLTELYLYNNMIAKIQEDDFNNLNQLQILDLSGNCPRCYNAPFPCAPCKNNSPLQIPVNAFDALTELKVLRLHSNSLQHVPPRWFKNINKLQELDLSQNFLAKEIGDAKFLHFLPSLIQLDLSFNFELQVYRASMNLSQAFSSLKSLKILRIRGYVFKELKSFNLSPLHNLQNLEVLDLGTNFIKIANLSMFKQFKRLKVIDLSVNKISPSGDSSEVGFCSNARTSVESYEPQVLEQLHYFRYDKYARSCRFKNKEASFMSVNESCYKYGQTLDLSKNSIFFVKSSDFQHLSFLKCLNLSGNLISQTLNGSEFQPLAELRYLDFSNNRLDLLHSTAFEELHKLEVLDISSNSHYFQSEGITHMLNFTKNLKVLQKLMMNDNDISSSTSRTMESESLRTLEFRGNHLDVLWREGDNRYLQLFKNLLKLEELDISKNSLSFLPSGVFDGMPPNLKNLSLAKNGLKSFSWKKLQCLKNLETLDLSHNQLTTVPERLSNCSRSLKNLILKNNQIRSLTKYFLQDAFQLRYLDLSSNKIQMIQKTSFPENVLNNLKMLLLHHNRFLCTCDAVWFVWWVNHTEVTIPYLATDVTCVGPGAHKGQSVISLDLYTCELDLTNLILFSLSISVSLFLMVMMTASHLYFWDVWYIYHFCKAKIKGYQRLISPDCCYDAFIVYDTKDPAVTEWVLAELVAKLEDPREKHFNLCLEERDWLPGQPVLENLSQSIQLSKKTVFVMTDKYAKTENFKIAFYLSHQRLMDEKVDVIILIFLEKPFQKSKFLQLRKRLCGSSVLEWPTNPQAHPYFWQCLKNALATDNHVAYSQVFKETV
Test: TLR activation, HEK-BLUE-hTLR7 SEAP reporter cells
Format: cell-based
Settings: 16-20 hours, lowest concentration giving SEAP response at least 2x vehicle control, tested 0.01-30 micromolar
Measurement Name: MEC to Produce TLR Activation: TLR 7 (µM)
Answer format: numeric, µM implied, no suffix.

The examples below pair each entry with its known result.
Using the record for `CCCC[C@@H](n1cnc2c(N)nc3ccccc3c21)C(C)(C)O` , report its MEC to Produce TLR Activation: TLR 7.
0.01

Using the record for CC(C)(O)Cn1cnc2c(N)nc3ccccc3c21 [Comparative Example 2, reference compound] , report its MEC to Produce TLR Activation: TLR 7.
10

Using the record for `CCC[C@@H](n1cnc2c(N)nc3ccccc3c21)C(C)(C)O` , report its MEC to Produce TLR Activation: TLR 7.
0.04

Okay, now this compound:
Using the record for `CCCC[C@H](C(C)C)n1cnc2c(N)nc3ccccc3c21` , report its MEC to Produce TLR Activation: TLR 7.
0.04
